Let's look at some binders and their measured REGN78.L15 ab raw.
target under test: human IL-6Rα (hIL-6Rα), barcoded negative control antigen (human) (UniProt P08887)
Sequence (P08887 20-358 limits assumed): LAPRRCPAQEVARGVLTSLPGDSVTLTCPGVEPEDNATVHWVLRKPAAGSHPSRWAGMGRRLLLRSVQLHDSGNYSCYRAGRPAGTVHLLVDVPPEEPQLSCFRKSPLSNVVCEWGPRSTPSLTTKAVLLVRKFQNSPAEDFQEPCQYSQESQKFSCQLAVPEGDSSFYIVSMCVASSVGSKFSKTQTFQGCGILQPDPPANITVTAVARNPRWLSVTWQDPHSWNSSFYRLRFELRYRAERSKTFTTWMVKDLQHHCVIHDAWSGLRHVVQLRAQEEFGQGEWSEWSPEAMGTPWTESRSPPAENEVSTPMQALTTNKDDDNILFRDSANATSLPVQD
assay details: barcoded-antigen count on source cell (scRNA-seq)
Entry rule: numbers only, all in counts.

>  <binder>
Table 1 Line # 40 antibody (SP_Plasma_cell) (antibody, human IgG4, V domains shown) VH: QVQLQESGPGLVKPSETLSLTCTISGGSISTYYWSWIRQPPGKGLEWIGYIYYSGNTNYNPSLKSRVTISVDTSKNQFSLKLNSVTAADTAVYYCARHRGSYVYGMDVWGQGTTVTVSS VL: DIQMTQSPSSLSASLVDRVTITCRASQTISSYLNWYQQKPGKAPKLLIYGASILQSGVPSRFSGSGSGTDFTLTISSLQPEDHAVYFCQQSYSSPTFGGGTKVEIK

>  <unit label>
counts

>  <REGN78.L15 ab raw>
1

$$$$
>  <binder>
Table 1 Line # 38 antibody (SP_B_cell) (antibody, human IgG4, V domains shown) VH: EVHLVESGGGLAKPGGSLRLSCTASGFTFSTYNLNWVRQAPGKGLEWVSYISRSSVYIYYADSLKGRFTISRDDAKNSLYLQMNSLRAEDTAVYYCVRDDYGDYVPLDYWGQGTLVTVSS VL: AIQMTQSPSSLSASVGDRITITCRASQGISNDLGWYQQKPGKAPKLLIFAASSLQSGVLSRFSGSGSGTDFTLTISSLQPEDVATYFCLQDYNFPRTFGQGTKVEIK

>  <unit label>
counts

>  <REGN78.L15 ab raw>
66

$$$$

Note: attention shifts to another entry.
# REGN78.L15 ab raw of Table 1 Line # 22 antibody (SP_B_cell) (antibody, human IgG4, V domains shown) VH: EVQLVESGGGLVQPGRSLRLSCAASGFTFDDYAMYWVRQIPGKGLEWVSGITWNSGSIGYAGSVQGRFTISRDNAKNSLYLQMNSLRVEDTALYYCAKDIGGSYLGFDYWGQGALVTVSS VL: ETVLTQSPGTLSLSPGERVTLSCRASQSVSSTYLAWYQQKPGQAPRLLIYGASNRATGIPDRFSGSGSGTDFTLTISRLEPEDFAVYYCQQYGSSYTFGQGTKLEIK = 5
